Biological target: T1, BS69CC-MYND (BS69 amino acid 480–602, CC-MYND domain) (Homo sapiens, UniProt Q15326)
T1 construct: The BS69 CC-MYND domain (amino acids 480–602) was amplified from pCI-BS69; GST (N, cleaved yes); 6xHis (N, cleaved yes); made in house; host or cells: E. coli Rosetta 2 (DE3) pLysS
T1 sequence (Q15326 480-602): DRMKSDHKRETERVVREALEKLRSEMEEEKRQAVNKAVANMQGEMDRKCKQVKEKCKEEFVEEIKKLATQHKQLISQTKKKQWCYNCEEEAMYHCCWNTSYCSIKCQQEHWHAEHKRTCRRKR
Test: Isothermal titration calorimetry (ITC) of EBNA2 peptides and polypeptides binding to BS69CC-MYND
Conditions: 25°C, pH 7.5, 29 injections of 1.3 μl 0.3 mM EBNA2 polypeptide into 0.1 mM BS69CC-MYND, mean ± SD of 3 independent experiments, read-out: KD1 (binding event 1), two-site (two event) binding model
ASSAY_METRIC: Kd (nM)
A number alone suffices; assume nM.

Query block: I would be grateful if you could share the reported Kd for EBNA2_348-422 SD + m3 T1: type 2 EBNA2 polypeptide 348–422 containing both the SD and motif 3 (PSIDP) mutations (protein, left off: His6, N-terminal, cleaved, type 2 EBNA2 polypeptide 348–422 containing both the SD and motif 3 (PSIDP) mutations) SMPQLSPVVSLHQGQGPENSPTPGPSTAGPVCRVTPSATPDISPIHEPESSDSEEPPFLFPDDWYPPSIDPAELD .
Result block: 8

Query block: I would be grateful if you could share the reported Kd for T2 EBNA2_348-422 SD: type 2 EBNA2 polypeptide 348–422 with an S409D mutation (protein, left off: His6, N-terminal, cleaved, type 2 EBNA2 polypeptide 348–422 with an S409D mutation) SMPQLSPVVSLHQGQGPENSPTPGPSTAGPVCRVTPSATPDISPIHEPESSDSEEPPFLFPDDWYPPTLEPAELD .
Result block: 8

Query block: I would be grateful if you could share the reported Kd for T2 EBNA2_348-422: type 2 EBNA2 polypeptide containing motif 1, 2 and 3, amino acids 348–422 (protein, left off: His6, N-terminal, cleaved) SMPQLSPVVSLHQGQGPENSPTPGPSTAGPVCRVTPSATPDISPIHEPESSDSEEPPFLFPSDWYPPTLEPAELD .
Result block: 9

Query block: I would be grateful if you could share the reported Kd for EBNA2_348-422 SD + m3 mt: type 2 EBNA2 polypeptide 348–422 containing both the SD and motif 3 (ATAEA) mutations (protein, left off: His6, N-terminal, cleaved, type 2 EBNA2 polypeptide 348–422 containing both the SD and motif 3 (ATAEA) mutations) SMPQLSPVVSLHQGQGPENSPTPGPSTAGPVCRVTPSATPDISPIHEPESSDSEEPPFLFPDDWYPATAEAAELD .
Result block: 5

Values from paper PMC6638984
